# Measured On: hpol κ (Homo sapiens, UniProt Q9UBT6)
# Sequence (Q9UBT6 19-526): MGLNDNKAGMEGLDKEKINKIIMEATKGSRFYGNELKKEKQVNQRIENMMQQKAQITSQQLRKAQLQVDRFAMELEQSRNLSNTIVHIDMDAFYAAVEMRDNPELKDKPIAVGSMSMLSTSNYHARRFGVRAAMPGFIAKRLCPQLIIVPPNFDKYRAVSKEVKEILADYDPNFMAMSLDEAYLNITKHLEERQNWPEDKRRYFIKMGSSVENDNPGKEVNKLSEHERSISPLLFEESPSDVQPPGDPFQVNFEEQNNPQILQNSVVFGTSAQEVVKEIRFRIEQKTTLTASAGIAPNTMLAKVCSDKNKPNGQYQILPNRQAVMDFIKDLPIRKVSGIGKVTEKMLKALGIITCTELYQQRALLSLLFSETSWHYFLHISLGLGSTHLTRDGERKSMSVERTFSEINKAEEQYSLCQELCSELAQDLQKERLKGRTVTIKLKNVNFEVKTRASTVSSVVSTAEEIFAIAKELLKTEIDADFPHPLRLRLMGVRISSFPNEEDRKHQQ
# Test Protocol: Fluorescence-based (TAMRA/BHQ strand displacement) DNA polymerase activity assay
# Assay Context: read-out: IC50 for inhibition of hpol κ; 50 nM DNA; 95% confidence interval in parentheses
Measure Name: IC50 (µM)
The figure you give is taken to be in µM; do not add the unit.

QUERY: Reported IC50 for Cl.[H]/N=C(\N)NN=Cc1cn(C(=O)c2cccc3ccccc23)c2ccc(Cl)cc12 [IAG-10, hydrochloride] : what is it?
RESULT: 7.2

====

// reported activity at 40 µM per item
# Measured On: UniProt Q9UBT6
# Test Protocol: Fluorescence-based (TAMRA/BHQ strand displacement) DNA polymerase activity assay
# Assay Context: read-out: % Activity Mean (hpol κ activity)
Return type: number; implicit unit %.

These recorded examples may help you get a feel for the data.
Compound | Measurement Unit | Reading
O=C1NC(=S)NC(=O)C1=Cc1cn(Cc2ccc(Br)cc2)c2ccc(COCCN3CCOCC3)cc12 [IBA-22] | % | 91.1
O=C1NC(=S)NC(=O)C1=Cc1cn(Cc2ccc3ccccc3c2)c2ccccc12 [IBA-1] | % | 116
O=C1NC(=O)C(=Cc2cn(Cc3ccc4ccccc4c3)c3ccccc23)C(=O)N1 [IBA-33] | % | 17.9
COc1ccc2c(c1)c(C=C1C(=O)NC(=S)NC1=O)cn2C(=O)c1cccc2ccccc12 [IBA-17] | % | 93.8
N#Cc1ccc(Cn2cc(C=C3C(=O)NC(=O)NC3=O)c3ccccc32)cc1 [IBA-10] | % | 102
O=C1NC(=S)NC(=O)C1=Cc1cn(Cc2cccc(C(F)(F)F)c2)c2ncccc12 [IBA-13] | % | 96.6
Cc1c(C=C2C(=O)NC(=O)NC2=O)c2ccccc2n1C(=O)c1ccc2ccccc2c1 [IBA-14] | % | 95.7
O=C1NC(=S)NC(=O)C1=Cc1cn(Cc2cccc3ccccc23)c2ccc(Br)cc12 [IBA-34] | % | 3.7

QUERY: Quick check: activity at 40 µM of O=C1NC(=O)C(=Cc2cn(Cc3ccc4ccccc4c3)c3ncc(Cl)cc23)C(=O)N1 [IBA-21] ?
RESULT: 92.2

====

# Measured On: hpol κ (Homo sapiens, UniProt Q9UBT6)
# Test Protocol: Fluorescence-based (TAMRA/BHQ strand displacement) DNA polymerase activity assay
# Assay Context: read-out: IC50 for inhibition of hpol κ; 2.5 nM DNA; 95% confidence interval in parentheses
Measure Name: IC50 (µM)
Respond with the bare value in µM.

QUERY: // query IC50 value for entry Cl.[H]/N=C(\N)NN=Cc1cn(C(=O)c2cccc3ccccc23)c2ccc(Cl)cc12 [IAG-10, hydrochloride]
RESULT: 1.4

Cited source for all entries: patent US12685733B2
